This collection of values is drawn from ChEMBL document CHEMBL1142165.

Recorded IC50 values for a group of molecules are listed next.
system: HeLa; assay: Inhibition of metabolic activity in HeLa cells assessed as MTT reduction after 48 hrs; format: functional, cell-based; settings: Homo sapiens
endpoint.name: IC50 (µg/mL)

>>> recorded_number("COc1c(N2C[C@@H]3CCCN[C@@H]3C2)c(F)cc2c(=O)c(C(=O)O)cn(C3CC3)c12")
110
>>> recorded_number("CCC[C@@H]1C[C@@H](C(=O)N[C@@H]([C@H]2O[C@H](SC)[C@H](O)[C@@H](O)[C@H]2O)[C@H](C)Cl)N(C)C1")
200
>>> recorded_number("CC[C@H]1OC(=O)[C@H](C)[C@@H](O[C@H]2C[C@@](C)(OC)[C@@H](O)[C@H](C)O2)[C@H](C)[C@@H](O[C@@H]2O[C@H](C)C[C@H](N(C)C)[C@H]2O)[C@](C)(O)C[C@@H](C)C(=O)[C@H](C)[C@@H](O)[C@]1(C)O")
170
>>> recorded_number("O=C(N[C@H](CO)[C@H](O)c1ccc([N+](=O)[O-])cc1)C(Cl)Cl")
340
>>> recorded_number("O=C(O)c1cn(C2CC2)c2cc(N3CCNCC3)c(F)cc2c1=O")
120
>>> recorded_number("CC[C@H]1OC(=O)[C@H](C)[C@@H](O[C@H]2C[C@@](C)(OC)[C@@H](O)[C@H](C)O2)[C@H](C)[C@@H](O[C@@H]2O[C@H](C)C[C@H](N(C)C)[C@H]2O)[C@](C)(O)C[C@@H](C)/C(=N\\OCOCCOC)[C@H](C)[C@@H](O)[C@]1(C)O")
90
>>> recorded_number("CC[C@H]1OC(=O)[C@H](C)[C@@H](O[C@H]2C[C@@](C)(OC)[C@@H](O)[C@H](C)O2)[C@H](C)[C@@H](O[C@@H]2O[C@H](C)C[C@H](N(C)C)[C@H]2O)[C@](C)(O)C[C@@H](C)CN(C)[C@H](C)[C@@H](O)[C@]1(C)O")
160
